Test target: T1, GST-Cdk5.GST-Nck5a complex (Homo sapiens (Human), UniProt Q00535 1-292; Q15078 99-307)
T1 construct: also called Cdk5/Nck5a complex; Cdk5.Nck5a complex
Assay procedure: steady state kinase kinetics with histone H1 peptide as substrate, Dixon plot; noncompetitive with respect to the substrate
Measured endpoint: Ki

Give its Ki value. Item: ASTSELLRCLGEFLCRRCYRLKHLSPTD (Chemically synthesised (Fmoc), purity above 95%; Gln145 of the recombinant 29-residue fragment was left out; also called αN peptide) [synthetic 28-residue Nck5a peptide corresponding to Ala146 to Asp173 of Nck5a]
~25 µM
